System: DIGSA
Test: Pre-emergence herbicidal action against DIGSA
Assay type: in vivo, Digitaria sanguinalis
Conditions: dosage 20 g/ha
Pre-emergence action against DIGSA in % values by entry
endpoint-name: Pre-emergence action against DIGSA in % (%)

1. Cc1nnc(NC(=O)c2ccc(Br)c(C(=O)NCC(F)F)c2Cl)o1 :: 90
2. COCCNC(=O)c1c(C(F)(F)F)ccc(C(=O)Nc2nnnn2C)c1Cl :: 100
3. CCCNC(=O)c1c(C(F)F)ccc(C(=O)Nc2nnnn2CC)c1Cl :: 100
4. CCn1nnnc1NC(=O)c1ccc(C(F)(F)F)c(C(=O)NCC(F)F)c1C1CC1 :: 100
5. NC(=O)c1c(C(F)(F)F)ccc(C(=O)Nc2nnco2)c1Cl :: 80
6. CCNC(=O)c1c(C(F)(F)F)ccc(C(=O)Nc2nnnn2CC)c1OC :: 100
7. Cc1nnc(NC(=O)c2ccc(C(F)(F)F)c(C(=O)NC(C)C3CC3)c2Cl)o1 (stereo not shown) :: 90

---

Test system: ALOMY
Assay: Pre-emergence herbicidal action against ALOMY
Format: in vivo, Alopecurus myosuroides
Settings: Alopecurus myosuroides, 504 h; 80 g/ha, pre-emergence, scored visually after 3 weeks vs untreated controls (100% = plants have died, 0% = like control plants)
Recorded measurements of pest or weed control at 80 g/ha, one per entry
endpoint-name: pest or weed control at 80 g/ha (%)

1) COc1c(C(=O)Nc2nnnn2C)ccc(C(F)(F)F)c1C(=O)NC1CC1 :: 90
2) CCc1c(C(=O)Nc2nnnn2C)ccc(C(F)F)c1C(=O)NC :: 90
3) CNC(=O)c1c(C(F)(F)C(F)(F)F)ccc(C(=O)Nc2nnnn2C)c1Cl :: 100
4) CCNC(=O)c1c(I)ccc(C(=O)Nc2nnnn2CC)c1Cl :: 100
5) CCNC(=O)c1c(Cl)ccc(C(=O)Nc2nnnn2C)c1Br :: 100
6) Cn1nnnc1NC(=O)c1ccc(Br)c(C(=O)NC2CC2)c1Cl :: 100
7) CCCNC(=O)c1c(C(F)(F)F)ccc(C(=O)Nc2nnnn2CC)c1C :: 100
8) Cn1nnnc1NC(=O)c1ccc(Cl)c(C(=O)NC2CC2)c1Cl :: 100
9) CCNC(=O)c1c(C(F)(F)F)ccc(C(=O)Nc2nnnn2C)c1CC :: 100

---

Tested on: LOLRI
Test: Pre-emergence herbicidal action against LOLRI
Assay type: in vivo, Lolium rigidum
Conditions: Lolium rigidum, 504 h, 80 g/ha
endpoint-name: pest or weed control at 80 g/ha

1) CCNC(=O)c1c(C(F)(F)F)ccc(C(=O)Nc2nnnn2C)c1CC [Example 1-272] :: 80%
2) CCn1nnnc1NC(=O)c1ccc(C(F)F)c(C(=O)NC2CC2)c1Cl [Example 2-149] :: 90%
3) CCn1nnnc1NC(=O)c1ccc(Br)c(C(=O)NC2CC2)c1Cl [Example 2-179] :: 80%
4) CCCNC(=O)c1c(C(F)(F)F)ccc(C(=O)Nc2nnnn2C)c1Cl [Example 1-136] :: 90%
5) CNC(=O)c1c(Br)ccc(C(=O)Nc2nnnn2C)c1Cl [Example 1-177] :: 90%
6) CCc1c(C(=O)Nc2nnnn2C)ccc(C(F)(F)F)c1C(=O)NC1CC1 [Example 1-273] :: 80%
7) CSc1c(C(=O)Nc2nnnn2C)ccc(C(F)(F)F)c1C(=O)NC1CC1 [Example 1-83] :: 80%
8) Cn1nnnc1NC(=O)c1ccc(Br)c(C(=O)NC2CC2)c1Br [Example 1-344] :: 90%
9) CCNC(=O)c1c(Br)ccc(C(=O)Nc2nnnn2C)c1Br [Example 1-343] :: 80%
10) Cn1nnnc1NC(=O)c1ccc(C(F)(F)F)c(C(=O)NC2CC2)c1C1CC1 [Example 1-288] :: 80%
11) CCn1nnnc1NC(=O)c1ccc(Br)c(C(=O)NC2CC2)c1Br [Example 2-343] :: 90%
12) CCCNC(=O)c1c(C(F)(F)F)ccc(C(=O)Nc2nnnn2CC)c1C [Example 2-32] :: 90%
13) CCNC(=O)c1c(C(F)(F)F)ccc(C(=O)Nc2nnnn2CC)c1Cl [Example 2-130] :: 100%
14) CCn1nnnc1NC(=O)c1ccc(C(F)(F)F)c(C(=O)NC(C)C)c1C [Example 2-33] :: 80%
